This collection of values is drawn from patent US12150447B2.

Biological target: wild-type auxin receptor (TIR1) (Arabidopsis thaliana, UniProt Q570C0)
Construct: expressed in transfected cells; host or cells: Saccharomyces cerevisiae strain EGY48
Sequence (Q570C0 1-594): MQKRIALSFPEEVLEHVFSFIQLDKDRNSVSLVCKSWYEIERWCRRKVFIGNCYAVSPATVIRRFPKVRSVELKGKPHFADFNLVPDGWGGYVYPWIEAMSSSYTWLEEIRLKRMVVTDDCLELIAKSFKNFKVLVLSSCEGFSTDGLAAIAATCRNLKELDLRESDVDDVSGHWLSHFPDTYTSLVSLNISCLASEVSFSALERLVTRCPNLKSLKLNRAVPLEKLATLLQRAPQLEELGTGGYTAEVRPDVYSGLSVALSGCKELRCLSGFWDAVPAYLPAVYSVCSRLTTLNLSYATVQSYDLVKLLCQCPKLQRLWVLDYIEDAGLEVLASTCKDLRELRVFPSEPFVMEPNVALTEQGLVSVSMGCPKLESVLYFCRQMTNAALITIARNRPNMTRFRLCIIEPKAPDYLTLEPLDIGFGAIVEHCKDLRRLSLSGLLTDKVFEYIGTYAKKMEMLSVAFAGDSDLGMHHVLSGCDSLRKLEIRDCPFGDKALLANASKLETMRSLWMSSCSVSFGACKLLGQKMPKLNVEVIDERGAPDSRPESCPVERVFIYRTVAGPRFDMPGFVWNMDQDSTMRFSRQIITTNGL
Sequence (Q38822 1-93 partner limits assumed): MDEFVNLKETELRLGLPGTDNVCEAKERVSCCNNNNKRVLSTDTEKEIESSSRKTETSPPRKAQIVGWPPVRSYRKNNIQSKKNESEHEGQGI
Assay: Evaluation of binding to auxin receptor (yeast two-hybrid assay), wild-type receptor
Conditions: yeast EGY48, LacZ reporter, X-gal, 30° C. for 3 days; wild type auxin receptor with AUX/IAA protein
measurement_type: wt TIR: minimum concentration of the test compound in which the well turns blue

Example cases with answers are listed next.
Cc1ccc(Cl)cc1-c1ccc2[nH]cc(CC(=O)O)c2c1; 100 µM
Cc1ccc(-c2ccc3[nH]cc(CC(=O)O)c3c2)cc1C; 10 µM
CCCCOc1ccc2[nH]cc(CC(=O)O)c2c1 [RY-215, reference compound]; 10 µM
Cc1ccccc1-c1ccc2[nH]cc(CC(=O)O)c2c1; 10 µM
COc1ccccc1-c1ccc2[nH]cc(CC(=O)O)c2c1 [Example 27A, 5-(2-methoxyphenyl)-indole-3-acetic acid]; 100 µM

Kindly review the next compound as well.
Input: Would you mind telling me what wt TIR: minimum concentration of the test compound in which the well turns blue value was observed for O=C(O)Cc1c[nH]c2cc(-c3ccc4c(c3)OCO4)ccc12 ?
Output: 10 µM
